Test: Stability in human fasted-state simulated gastric fluid and fasted-state simulated intestinal fluid
Format: physicochemical
Conditions: human fasted-state simulated intestinal fluid (FaSSIF-V2), pH 6.8, LC-MS/MS, timepoints 0-120 min; read-out: FaSSIF t1/2
Description: The chemical stability of example compounds was determined using human fasted-state simulated gastric fluid, and fasted-state simulated intestinal fluid, prepared as follows. […]
# maps each entry to its half-life at 1 µM

Sample answers from the record:
# SMILES RECORD, half-life at 1 µM
measured = [
    ("CC(C)(C)[C@@H](N)C(=O)OC[C@H]1O[C@@](C#N)(c2ccc3c(N)ncnn23)[C@H](O)[C@@H]1OC(=O)CC1CCCCC1", "> 6.21 h"),
    ("CCCC(=O)Nc1ncnn2c([C@]3(C#N)O[C@H](COC(=O)CC4CCCCC4)[C@@H](OC(=O)[C@@H](N)C(C)(C)C)[C@H]3O)ccc12", "> 6.22 h"),
    ("CCC(CC)C(=O)Nc1ncnn2c([C@]3(C#N)O[C@H](COC(=O)CC4CCCCC4)[C@@H](OC(=O)[C@@H](N)C(C)(C)C)[C@H]3O)ccc12", "> 6.22 h"),
]

Then this molecule:
IN: Look up and report measured half-life at 1 µM for this entry: `COC(C)(C)C(=O)Nc1ncnn2c([C@]3(C#N)O[C@H](COC(=O)CC4CCCCC4)[C@@H](OC(=O)[C@@H](N)C(C)(C)C)[C@H]3O)ccc12`
OUT: > 6.22 h
